Measured IC50 by item
tested on: 134 cancer cell lines; assay: Cell viability assay (ATPlite, 72 hours), IC50 on cancer cell line panel; conditions: Homo sapiens, A204, read-out: IC50 in cell proliferation assay, cell line A-204
parameter_measured: IC50 (nM)

smiles_text=CCc1nc(C(N)=O)c(Nc2ccc(N3CCC(N4CCN(C)CC4)CC3)c(OC)c2)nc1NC1CCOCC1 recorded_measurement=392
smiles_text=Cc1nc(NC(=O)N2CCC[C@H]2C(N)=O)sc1-c1ccnc(C(C)(C)C(F)(F)F)c1 recorded_measurement=247
smiles_text=C[C@H](Nc1ncnc2nc[nH]c12)c1cc2cccc(Cl)c2c(=O)n1-c1ccccc1 recorded_measurement=1180
